assay-system: A3 AR (Homo sapiens)
Sequence (P0DMS8 whole entry): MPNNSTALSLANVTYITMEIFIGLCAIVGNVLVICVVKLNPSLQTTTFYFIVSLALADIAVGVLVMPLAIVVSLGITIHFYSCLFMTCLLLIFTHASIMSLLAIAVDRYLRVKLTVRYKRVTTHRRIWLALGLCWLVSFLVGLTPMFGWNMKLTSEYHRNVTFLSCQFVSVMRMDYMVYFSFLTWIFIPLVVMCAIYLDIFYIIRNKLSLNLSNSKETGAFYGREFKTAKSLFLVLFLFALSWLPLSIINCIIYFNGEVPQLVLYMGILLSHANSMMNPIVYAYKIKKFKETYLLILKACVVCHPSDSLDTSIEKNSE
assay-remarks: Radioligand competition binding (125I-ABA) to human A3 AR in HEK 293 cell membranes
cond: read-out: A3 ± SEM; Ki from competition binding, 125I-ABA, HEK 293 cell membranes
pKi: −log10 of the molar value.
Please note: yes (1) applies when pKi is 8 or greater, and no (0) applies otherwise.

Observe how each entry below is paired with its result.
| compound | answer-label |
| --- | --- |
| COC(=O)C1CCC(CC#Cc2nc(N)c3ncn(C4OC(CO)C(O)C4O)c3n2)CC1 (stereo not shown) [JR-2145] | no (0) |
| CCNC(=O)C1OC(n2cnc3c(N)nc(C#CC(O)C4CCCCC4)nc32)C(O)C1O (single isomer, unassigned) [JR-3159B] | yes (1) |

Exam item: Could you please find out whether CCNC(=O)C1OC(n2cnc3c(N)nc(C#CC(O)C4CCCCC4)nc32)C(O)C1O (single isomer, unassigned) [JR-3159A] has pKi that meets 8 or exceeds it?
Marked response: yes (1)

Exam item: Could you please find out whether CCNC(=O)C1OC(n2cnc3c(N)nc(C#CCC4CCNCC4)nc32)C(O)C1O (stereo not shown) [JR-3261] has pKi that meets 8 or exceeds it?
Marked response: no (0)

Exam item: Could you please find out whether CCNC(=O)C1OC(n2cnc3c(N)nc(C#CC4(N)CCCCC4)nc32)C(O)C1O (stereo not shown) [JR-3205] has pKi that meets 8 or exceeds it?
Marked response: no (0)

Exam item: Could you please find out whether CCNC(=O)C1OC(n2cnc3c(N)nc(C#CC4(O)CCCCC4)nc32)C(O)C1O (stereo not shown) [JR-3089] has pKi that meets 8 or exceeds it?
Marked response: yes (1)

Exam item: Could you please find out whether CC(=O)OCC1CCC(CC#Cc2nc(N)c3ncn(C4OC(CO)C(O)C4O)c3n2)CC1 (stereo not shown) [JR-2147] has pKi that meets 8 or exceeds it?
Marked response: no (0)
